For each of the molecules below, state its viability fraction.
# test.method.notes: HMLE_shGFP background line viability loss – cell-based, CellTiter-Glo luminescence, dry powder, set 2, counter-screen for breast cancer stem cell killers, dose response (AID 588846)
# condition.set: HMLE_shGFP viability, CellTiter-Glo luminescence, 72 h; at 32 µM (top of the series)
I only need the number, in %, no unit after it.

Input line: Requested field: viability fraction. Item: `Cc1ccc(/C=C/C(=O)NC2=NCCS2)cc1`
Output line: 88.1

Input line: Requested field: viability fraction. Item: `O=C(/C=C/c1ccc(Cl)c(Cl)c1)NC1=NCCS1`
Output line: 22.2

Input line: Requested field: viability fraction. Item: `CCc1ccc(/C=C/C(=O)NC2=NCCS2)cc1`
Output line: 92.9

Input line: Requested field: viability fraction. Item: `CC(C)c1ccc(/C=C/C(=O)NC2=NCCS2)cc1`
Output line: 14

Input line: Requested field: viability fraction. Item: `O=C(/C=C/c1ccc(-c2ccccc2)cc1)NC1=NCCS1`
Output line: 13.7

Input line: Requested field: viability fraction. Item: `Cc1csc(NC(=O)c2ccc(CNc3ccccn3)o2)n1`
Output line: 80.2

Input line: Requested field: viability fraction. Item: `O=C(NC1CCCC1)c1ccc(COc2ccccc2)o1`
Output line: 95.7
